system.tested: A. baumannii PBP2 (Acinetobacter baumannii, UniProt D0C8Z9)
Sequence (D0C8Z9 whole entry): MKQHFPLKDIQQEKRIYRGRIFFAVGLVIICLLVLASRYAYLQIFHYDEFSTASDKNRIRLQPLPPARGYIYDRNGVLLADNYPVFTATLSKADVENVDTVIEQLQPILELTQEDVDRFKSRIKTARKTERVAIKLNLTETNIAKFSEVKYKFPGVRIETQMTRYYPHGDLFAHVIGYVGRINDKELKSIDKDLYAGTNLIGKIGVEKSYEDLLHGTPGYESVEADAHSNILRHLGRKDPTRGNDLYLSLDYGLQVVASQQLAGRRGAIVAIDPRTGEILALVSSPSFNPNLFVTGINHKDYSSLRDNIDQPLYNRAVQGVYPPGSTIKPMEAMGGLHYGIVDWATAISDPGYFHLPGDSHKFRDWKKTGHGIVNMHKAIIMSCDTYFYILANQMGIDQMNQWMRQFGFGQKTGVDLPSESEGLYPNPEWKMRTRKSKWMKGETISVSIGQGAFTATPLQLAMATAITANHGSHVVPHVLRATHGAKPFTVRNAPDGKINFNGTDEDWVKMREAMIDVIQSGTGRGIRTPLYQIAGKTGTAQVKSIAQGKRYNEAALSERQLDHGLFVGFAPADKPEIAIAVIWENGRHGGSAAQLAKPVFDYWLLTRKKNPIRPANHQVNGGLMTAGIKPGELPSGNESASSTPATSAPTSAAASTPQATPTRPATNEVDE
assay.details: Bocillin-FL competition binding via gel filtration, A. baumannii PBP2
attribute.measured: EC50

Solved entries:
- compound: "O=C(NCCCN1CCN(C(=O)NC(C(=O)N[C@H]2Cc3ccc(F)c(C(=O)O)c3OB2O)c2cc(F)c(O)c(O)c2Cl)C(=O)C1=O)c1cc(O)ccc1F (some centres unmarked)"
  system.tested: "A. baumannii PBP2 (Acinetobacter baumannii, UniProt D0C8Z9)"
  endpoint.result: "10 to 50 µM"
- compound: "O=C(O)c1c(F)ccc2c1OB(O)[C@@H](NC(=O)[C@H](NC(=O)N1CCN(C3CCN(C(=O)Nc4cc(O)ccc4F)CC3)C1=O)c1cc(F)c(O)c(O)c1Cl)C2 (single isomer, unassigned)"
  system.tested: "A. baumannii PBP2 (Acinetobacter baumannii, UniProt D0C8Z9)"
  endpoint.result: "< 10 µM"
- compound: "O=C(NCCCN1CCN(C(=O)N[C@@H](C(=O)N[C@H]2Cc3ccc(F)c(C(=O)O)c3OB2O)c2cc(F)c(O)c(O)c2Cl)C(=O)C1=O)c1cc(F)c(O)c(F)c1"
  system.tested: "A. baumannii PBP2 (Acinetobacter baumannii, UniProt D0C8Z9)"
  endpoint.result: "< 10 µM"
- compound: "CN(CCCN1CCN(C(=O)NC(C(=O)N[C@H]2Cc3ccc(F)c(C(=O)O)c3OB2O)c2cc(F)c(O)c(O)c2Cl)C(=O)C1=O)C(=O)c1cccc(O)c1 (some centres unmarked)"
  system.tested: "A. baumannii PBP2 (Acinetobacter baumannii, UniProt D0C8Z9)"
  endpoint.result: "10 to 50 µM"

Query string: What does the data say about its EC50? Entry: O=C(O)c1c(F)ccc2c1OB(O)[C@@H](NC(=O)[C@H](NC(=O)N1CCN(Cc3ccc(O)c(O)c3Cl)C(=O)C1=O)c1cccc(P(=O)(O)O)c1)C2 (single isomer, unassigned)
Result string: 10 to 50 µM

Query string: Input O=C(NCCCN1CCN(C(=O)N[C@@H](C(=O)N[C@H]2Cc3ccc(F)c(C(=O)O)c3OB2O)c2cc(F)c(O)c(O)c2Cl)C1=O)c1ccccc1
Result string: < 10 µM

Query string: Input O=C(NCCCN1CCN(C(=O)NC(C(=O)N[C@H]2Cc3ccc(F)c(C(=O)O)c3OB2O)c2cc(F)c(O)c(O)c2Cl)C(=O)C1=O)c1c(F)ccc(O)c1Cl (some centres unmarked)
Result string: < 10 µM

Query string: Input O=C(O)c1cccc2c1OB(O)[C@@H](NC(=O)[C@H](NC(=O)N1CCN(Cc3cc(F)c(O)c(O)c3Cl)C(=O)C1=O)c1ccc(P(=O)(O)O)cc1)C2
Result string: < 10 µM

Query string: Input O=C(NCCCN1CCN(C(=O)NC(C(=O)N[C@H]2Cc3ccc(F)c(C(=O)O)c3OB2O)c2cc(F)c(O)c(O)c2Cl)C(=O)C1=O)c1ccc(O)c(F)c1Cl (some centres unmarked)
Result string: < 10 µM
